Assay system: human CD20 (human) (UniProt P11836)
Sequence (looked up): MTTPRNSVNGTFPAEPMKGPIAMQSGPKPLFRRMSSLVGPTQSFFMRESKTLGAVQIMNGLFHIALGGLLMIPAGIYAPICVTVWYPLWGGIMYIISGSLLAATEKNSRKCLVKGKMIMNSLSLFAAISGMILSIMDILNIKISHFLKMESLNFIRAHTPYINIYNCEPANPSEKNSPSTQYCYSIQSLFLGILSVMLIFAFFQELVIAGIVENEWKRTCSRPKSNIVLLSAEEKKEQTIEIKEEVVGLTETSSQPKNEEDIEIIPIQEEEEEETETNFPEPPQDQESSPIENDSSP
Assay info: Scatchard, competition with 125I-2H7.v16 on WIL2-S cells, n=3
Attribute measured: Kd (nM)

substance="RITUXAN (rituximab) (antibody)" assay_system="human CD20 (human) (UniProt P11836)" assay_result=0.99
